- Tested system: UniProtKB P08173
- Sequence (P08173 whole entry): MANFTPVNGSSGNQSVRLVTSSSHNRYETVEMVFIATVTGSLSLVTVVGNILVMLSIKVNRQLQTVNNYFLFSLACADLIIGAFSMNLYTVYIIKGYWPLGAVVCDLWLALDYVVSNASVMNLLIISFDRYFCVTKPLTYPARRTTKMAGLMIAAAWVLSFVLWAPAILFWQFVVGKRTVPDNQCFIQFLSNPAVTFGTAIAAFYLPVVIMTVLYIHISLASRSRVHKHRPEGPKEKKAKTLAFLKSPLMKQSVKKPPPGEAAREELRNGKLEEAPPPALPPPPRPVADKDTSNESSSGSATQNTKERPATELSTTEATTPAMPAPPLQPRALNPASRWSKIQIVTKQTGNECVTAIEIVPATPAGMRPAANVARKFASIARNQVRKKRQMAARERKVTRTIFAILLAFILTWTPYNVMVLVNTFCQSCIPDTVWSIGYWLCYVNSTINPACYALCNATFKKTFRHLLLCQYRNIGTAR
- Method: M4 GTPγS PAM assay (CHO-K1 membranes, 35S-GTP binding, with EC20 acetylcholine)
- Condition details: with EC20 acetylcholine (40 nM)
Could you please report measured EC50 for the items listed next?

Compound: Cc1c2c(n(C)c(=O)c1F)CN(C(=O)CC1CN(c3ccc(C(F)(F)F)cc3)C1)C2 [Compound I-85]
Result: < 50 nM

Compound: Cc1cc(=O)n(C)c2c1CN(C(=O)CC1CN(c3cnn(C4CC4)c3)C1)C2 [Compound I-37]
Result: 200 to 1000 nM

Compound: Cc1cc(=O)n(C)c2c1CN(C(=O)CC1CN(c3ccc(C(F)(F)F)cn3)C1)C2 [Compound I-8]
Result: > 1000 nM

Compound: Cc1c2c(n(C)c(=O)c1Cl)CN(C(=O)C(C)C1CN(c3ccnc(C(F)(F)F)c3)C1)C2 (single isomer, unassigned) [Compound I-82]
Result: > 1000 nM

Compound: Cc1cc(=O)n(C)c2c1CN(C(=O)CC1CN(c3cnc(C(F)(F)F)nc3)C1)C2 [Compound I-21]
Result: > 1000 nM

Compound: Cc1c2c(n(C)c(=O)c1C)CN(C(=O)CC1CN(c3ccc(F)c(C4CC4)c3)C1)C2 [Compound I-55]
Result: 50 to 200 nM

From here, focus on the item given below.
Inquiry: Field: EC50 (UniProtKB P08173). Entry: Cc1cc(=O)n(C)c2c1CN(C(=O)CC1CN(c3ccc(C4CC4)cc3)C1)C2 [Compound I-19]
Reply text: 50 to 200 nM
